Listing of recorded IC50 by entry.
Biological target: DYRK3 (Homo sapiens)
Sequence (O43781 1-588): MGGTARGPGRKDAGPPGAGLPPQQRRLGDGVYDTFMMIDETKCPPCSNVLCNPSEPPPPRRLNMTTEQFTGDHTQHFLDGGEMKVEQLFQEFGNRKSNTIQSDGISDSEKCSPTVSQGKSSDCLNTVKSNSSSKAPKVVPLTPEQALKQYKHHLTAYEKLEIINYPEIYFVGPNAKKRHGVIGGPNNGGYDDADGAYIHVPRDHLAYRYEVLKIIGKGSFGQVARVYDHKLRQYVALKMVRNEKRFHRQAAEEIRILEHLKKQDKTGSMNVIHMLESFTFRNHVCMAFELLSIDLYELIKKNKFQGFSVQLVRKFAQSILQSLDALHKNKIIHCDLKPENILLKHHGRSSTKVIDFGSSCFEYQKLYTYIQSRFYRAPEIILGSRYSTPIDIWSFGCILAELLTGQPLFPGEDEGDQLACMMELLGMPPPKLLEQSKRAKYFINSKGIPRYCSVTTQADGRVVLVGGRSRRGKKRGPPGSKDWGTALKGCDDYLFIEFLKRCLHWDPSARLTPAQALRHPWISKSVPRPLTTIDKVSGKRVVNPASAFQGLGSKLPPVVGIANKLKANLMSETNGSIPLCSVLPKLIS

Below are worked cases with known answers.
[
  {
    "molecule": "COCC#CC1CNC(=O)N1c1nc2c3c(ccc2s1)OCC3 (racemic)",
    "IC50": "≥ 1 µM"
  },
  {
    "molecule": "CC#C[C@H]1[C@H](CO)NC(=O)N1c1nc2c3c(ccc2s1)OCC3 (relative stereo)",
    "IC50": "0.1 to 1 µM"
  }
]

Qu. Requested read-out: IC50. Entry: CC#CC1CNC(=O)N1c1nc2c(ccc3ocnc32)s1 (single isomer, unassigned)
Ans. ≥ 1 µM

Qu. Any idea what IC50 was measured for O=C1NCC(C#CC2CC2)N1c1nc2c3c(ccc2s1)OCC3 (racemic) ?
Ans. 0.1 to 1 µM

Qu. Would you mind telling me what IC50 value was observed for CC#CC1CNC(=O)N1c1nc2c(ccc3ncn(CCOC)c32)s1 (racemic) ?
Ans. 0.1 to 1 µM

Qu. Can you share its IC50? I mean this molecule: CC#C[C@H]1[C@@H](C)NC(=O)N1c1nc2c3c(ccc2s1)OCC3
Ans. ≥ 1 µM

Qu. So what's the measured IC50 for this one? CC#C[C@H]1[C@H](CC)NC(=O)N1c1nc2c3c(ccc2s1)OCC3 (single isomer, unassigned)
Ans. 0.1 to 1 µM

Qu. Look up IC50: CC#CC1CNC(=O)N1c1nc2c3c(ccc2s1)OCCN3 (racemic)
Ans. 0.1 to 1 µM

Qu. Query: IC50; subject: CC#CC1CNC(=O)N1c1nc2c3c(ccc2s1)OCC(=O)N3C (racemic)
Ans. 0.1 to 1 µM

Qu. Query (molecule): CC#CC1CNC(=O)N1c1nc2c3c(ccc2s1)OCC(C)N3C (racemic) [Example 40] ; field requested: IC50
Ans. 0.1 to 1 µM

Qu. // query IC50 value for entry CC#C[C@@H]1[C@@H](C)NC(=O)N1c1nc2c3c(ccc2s1)OCC3
Ans. 0.1 to 1 µM

Qu. Recorded IC50 of CC#C[C@@H]1[C@H](CC)NC(=O)N1c1nc2c3c(ccc2s1)OCC3 (relative stereo) , please.
Ans. 0.1 to 1 µM

Qu. # input molecule: CC#C[C@H]1[C@H](CF)NC(=O)N1c1nc2c3c(ccc2s1)OCC3 (single isomer, unassigned) ; wanted: its IC50
Ans. 0.1 to 1 µM

Qu. Quick check: IC50 of CC#CC1CNC(=O)N1c1nc2c(ccc3nnn(C)c32)s1 (single isomer, unassigned) [Example 29] ?
Ans. ≥ 1 µM

Qu. Looking for the measured IC50 of CC#C[C@H]1[C@H](CN(C)C)NC(=O)N1c1nc2c3c(ccc2s1)OCC3 (single isomer, unassigned) , can you help?
Ans. 0.1 to 1 µM

* * *

target: DYRK1A (Homo sapiens, UniProt Q13627); construct: purchased Carna Biosciences, Inc. 04-130; assay: Inhibition test on activity of DYRK family, mobility shift assay (MSA), DYRK1A; format: biochemical; details: ATP 100 μM, FITC-labeled DYRKtide peptide substrate, room temperature 1 hour
parameter: Inhibitory Activity 1a (IC50 against DYRK1A)

[
  {
    "compound": "O=C1NCC(C#CCO)N1c1nc2c3c(ccc2s1)OCC3 (racemic)",
    "observed": "* * *"
  },
  {
    "compound": "CC#CC1CNC(=O)N1c1nc2c(ccc3ocnc32)s1 (single isomer, unassigned) [Example 52]",
    "observed": "* * *"
  },
  {
    "compound": "CC#C[C@H]1[C@H](CC)NC(=O)N1c1nc2c3c(ccc2s1)OCC3 (single isomer, unassigned)",
    "observed": "* * *"
  },
  {
    "compound": "CC#C[C@H]1[C@H](CN(C)C)NC(=O)N1c1nc2c3c(ccc2s1)OCC3 (single isomer, unassigned)",
    "observed": "* *"
  },
  {
    "compound": "C#CC1CNC(=O)N1c1nc2c3c(ccc2s1)OCC3 (racemic) [Example 12]",
    "observed": "* * *"
  }
]

Next up:
Qu. Can you share its Inhibitory Activity 1a (IC50 against DYRK1A)? I mean this compound: CC#CC1C(CN)NC(=O)N1c1nc2c3c(ccc2s1)OCC3 (centres unmarked)
Ans. * * *

* * *

IC50 data for DYRK3 (Homo sapiens) follow.

Observe how each entry below is paired with its result.
[
  {
    "compound": "CC#C[C@@H]1[C@H](CF)NC(=O)N1c1nc2c3c(ccc2s1)OCC3 (relative stereo)",
    "observed": "100 to 1000 nM"
  },
  {
    "compound": "CC#C[C@H]1[C@H](COC)NC(=O)N1c1nc2c3c(ccc2s1)OCC3 (single isomer, unassigned) [Example 76]",
    "observed": "≥ 1000 nM"
  },
  {
    "compound": "CC#CC1N(c2nc3c4c(ccc3s2)OCC4)C(=O)NC1(C)C (racemic)",
    "observed": "≥ 1000 nM"
  },
  {
    "compound": "CC#C[C@H]1[C@H]([C@@H](C)O)NC(=O)N1c1nc2c3c(ccc2s1)OCC3",
    "observed": "≥ 1000 nM"
  },
  {
    "compound": "CC#C[C@@H]1[C@H]([C@H](C)O)NC(=O)N1c1nc2c3c(ccc2s1)OCC3",
    "observed": "100 to 1000 nM"
  }
]

Qu. Given the entry CC#CC1CNC(=O)N1c1nc2c(ccc3nnn(C)c32)s1 (racemic) [Example 28] , what IC50 was observed with DYRK3 (Homo sapiens)?
Ans. 100 to 1000 nM

Qu. Missing value: IC50, DYRK3 (Homo sapiens), entry CC#C[C@H]1[C@H](CO)NC(=O)N1c1nc2c3c(ccc2s1)OCCO3 (single isomer, unassigned) . Fill in?
Ans. 100 to 1000 nM

Qu. Query IC50 on DYRK3 (Homo sapiens) for CC#C[C@@H]1[C@H](C)NC(=O)N1c1nc2c3c(ccc2s1)OCC3
Ans. 100 to 1000 nM

Qu. Request: IC50, test system DYRK3 (Homo sapiens), entry CC#C[C@H]1[C@H](C)NC(=O)N1c1nc2c3c(ccc2s1)OCC3
Ans. ≥ 1000 nM

Qu. Form field: IC50 recorded for CC#CC1CNC(=O)N1c1nc2c3c(ccc2s1)OCCN3C1CC1 (racemic) with DYRK3 (Homo sapiens) (enter value)
Ans. 100 to 1000 nM

Qu. // lookup IC50 | system=DYRK3 (Homo sapiens) | key= CC#C[C@H]1[C@H](COC)NC(=O)N1c1nc2c3c(ccc2s1)OCC3 (single isomer, unassigned) [Example 77]
Ans. ≥ 1000 nM

Qu. Lab request: please report IC50 under test system DYRK3 (Homo sapiens) for CC#C[C@H]1[C@H]([C@H](C)O)NC(=O)N1c1nc2c3c(ccc2s1)OCC3
Ans. ≥ 1000 nM

* * *

biological target: DYRK1B (Homo sapiens); construct: purchased Carna Biosciences, Inc. 04-131; assay: Inhibition test on activity of DYRK family, mobility shift assay (MSA), DYRK1B; assay type: biochemical; parameters: scale not given here; conditions: ATP 200 μM, FITC-labeled DYRKtide peptide substrate, room temperature 1 hour
Sequence (Q9Y463 whole entry): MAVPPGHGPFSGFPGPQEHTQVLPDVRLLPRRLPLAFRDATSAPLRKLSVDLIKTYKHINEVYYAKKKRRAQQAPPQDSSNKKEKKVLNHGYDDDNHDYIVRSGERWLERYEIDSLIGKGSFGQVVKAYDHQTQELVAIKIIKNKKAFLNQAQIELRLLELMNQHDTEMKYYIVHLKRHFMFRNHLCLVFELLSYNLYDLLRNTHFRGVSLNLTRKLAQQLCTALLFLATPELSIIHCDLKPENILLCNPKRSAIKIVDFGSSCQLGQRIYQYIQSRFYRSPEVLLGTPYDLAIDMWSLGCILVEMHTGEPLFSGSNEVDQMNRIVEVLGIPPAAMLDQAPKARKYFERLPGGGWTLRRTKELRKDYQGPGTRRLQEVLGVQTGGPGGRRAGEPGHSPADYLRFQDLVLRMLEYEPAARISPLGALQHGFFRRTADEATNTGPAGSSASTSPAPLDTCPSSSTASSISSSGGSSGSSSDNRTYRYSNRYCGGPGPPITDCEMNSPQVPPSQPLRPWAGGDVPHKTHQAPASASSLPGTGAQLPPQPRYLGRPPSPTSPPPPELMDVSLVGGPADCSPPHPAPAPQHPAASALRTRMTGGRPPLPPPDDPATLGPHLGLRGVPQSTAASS
parameter: Inhibitory Activity 1b (IC50 against DYRK1B)

[
  {
    "molecule": "CC#C[C@@H]1[C@H](C)NC(=O)N1c1nc2c3c(ccc2s1)OCC3 [Example 5]",
    "target.entity": "DYRK1B (Homo sapiens)",
    "observed": "* * *"
  },
  {
    "molecule": "CC#CC1CNC(=O)N1c1nc2c3c(ccc2s1)OCC3 (racemic) [Example 8]",
    "target.entity": "DYRK1B (Homo sapiens)",
    "observed": "* * *"
  },
  {
    "molecule": "CC#CC1CNC(=O)N1c1nc2c(ccc3ncn(CCOC)c32)s1 (racemic) [Example 33]",
    "target.entity": "DYRK1B (Homo sapiens)",
    "observed": "* *"
  }
]
